The reported measurements were obtained from ChEMBL document CHEMBL3872232.

- System: MDA-MB-231
- MEASUREMENT PROTOCOL: Induction of apoptosis in human MDA-MB-231 cells assessed as late apoptotic cells at 5 uM after 24 hrs by Annexin V-FITC/propidium iodide staining based flow cytometry (reference value: 1.8%)
- Type: functional
VALUE KIND: Activity (%)

SMILES STRING	TARGET	UNITS OF MEASURE	OBSERVED RESULT
CCOC(=O)/C(=C/c1ccccc1)CN1C(=O)[C@@H](OC)[C@H]1c1ccccc1Br	MDA-MB-231	%	5.4
COc1cc2c(c(OC)c1OC)-c1ccc(OC)c(=O)cc1[C@@H](NC(C)=O)CC2	MDA-MB-231	%	5.8
CO[C@@H]1C(=O)N(C/C(C#N)=C/c2ccccc2)[C@@H]1c1ccc(F)cc1	MDA-MB-231	%	4.7
CO[C@@H]1C(=O)N(C/C(C#N)=C/c2ccccc2)[C@@H]1c1ccc(C)cc1	MDA-MB-231	%	4.1
